# target or test system: Torsin-1A-interacting protein 1 (Homo sapiens)
# test summary: LAP1 binders from COS7 cell lysate, primary screen, small-molecule microarray, 635/667 nm fluorescence (AID 1116)
# measurement conditions: COS7-hLAP1 lysate binding, 635 nm fluorescence, higher = more signal
Mark not met for composite z-score values under 0.8, and met for everything at or above.

Use these answered entries as a reference point.
C=CC[C@]1(C(=O)NCc2ccccc2)COC(c2ccc(OCCCO)cc2)=N1: met
C=C(/C(=C/C[C@@H](OC(C)=O)c1ccccc1OCCO)c1cc(C(=O)OC)ccc1OC)C(C)C: not met
C=CCC(OC(C)=O)[C@@H]1[C@@H](N(Cc2ccc(-c3cccc(C(F)(F)F)c3)o2)C(=O)c2cccc3ccccc23)c2cc(OCCCO)ccc2N1C(=O)c1ccc2ccccc2n1 (stereo partly drawn): not met
CC(C)[Si](C#CCCCC#N)(O[C@H](c1ccccc1)c1cn([C@H](C)c2ccccc2)nn1)C(C)C: not met

Check this compound for composite z-score at or above 0.8: COC(=O)C1(CC(C)C)C=C2C(=C(C(C)C)C(=O)C2C)CN1 (stereo not drawn)
not met

Now the compound `C=C(/C(=C/C[C@H](OC(=O)c1ccncc1)c1ccccc1OCCO)c1cc(C(=O)OC)ccc1OC)C(C)C`
not met

Now the compound `CN(C)CCCNC(=O)[C@@]1(Cc2ccccc2I)c2ccccc2C(=O)N(Cc2ccccc2)[C@H]1c1ccc(CO)cc1`
met

Now the compound `CC(C)(C)OC(=O)CC[C@]1(C(=O)N2CCOCC2)N=C(c2ccc(OCCCO)cc2)O[C@H]1c1ccccc1CN=[N+]=[N-]`
met

Now the compound `C=CC[C@]1(C(=O)OC)N=C(c2ccc(OCCCO)cc2)O[C@H]1c1ccccc1N=[N+]=[N-]`
not met

Now the compound `CC#CCO[Si](C#CCCCCCC)(C(C)C)C(C)C`
not met

Now the compound C=CCC(OC(C)=O)[C@@H]1[C@@H](N(Cc2cc3ccccc3o2)C(=O)Cc2ccc(OC)cc2)c2cc(OCCCO)ccc2N1C(=O)Cc1ccc2ccccc2c1 (stereo partly drawn)
not met

Now the compound `CN(C)CCCCNC(=O)[C@H]1C[C@H]2C(=O)N[C@@H](Cc3ccccc3)C(=O)N2[C@H]1c1cccc(OCCO)c1`
not met

Now the compound `CC(=O)NCCCC[C@@H]1NC(=O)[C@H]2C[C@@H](C(=O)NCCCCCC[N+](C)(C)C)[C@@H](c3ccc(O)cc3)N2C1=O`
not met

Now the compound `COCCOC(=O)N1C(=O)[C@@]2(c3cc(C#CCC(C(=O)OC)C(=O)OC)ccc31)[C@H](c1ccc(OCCO)cc1)N1[C@H](c3ccccc3)[C@H](c3ccccc3)OC(=O)[C@H]1[C@@H]2C(=O)N1CCCCCCC1`
met

Now the compound `COc1ccc([Si](C)(C)[C@@H]2[C@@H](CC(=O)N(CCO)Cc3ccccc3)O[C@]3(C(=O)N(Cc4ccc(N5CCC5=O)cc4)c4ccccc43)[C@H]2C)cc1`
not met

Now the compound `COCCOC(=O)N1C(=O)[C@@]2(c3cc(C#CCC(C(=O)OC)C(=O)OC)ccc31)[C@H](C(=O)N1CCc3cc(OC)c(OC)cc3C1)[C@H]1C(=O)O[C@H](c3ccccc3)[C@H](c3ccccc3)N1[C@@H]2c1ccc(O)cc1`
met

Now the compound `COc1ccc([Si](C)(C)[C@H]2[C@H](CCn3cc([C@H](O)c4ccccc4)nn3)O[C@@]3(C(=O)N(C)c4c(Br)cc(C)cc43)[C@@H]2C)cc1`
not met
